- Subject of test: Prostaglandin G/H synthase 1 (Ovis aries)
- Test: Inhibition of ovine COX1 assessed as reduction in PGF2alpha formation at 10 uM incubated for 18 hrs by enzyme immunoassay
Reported property: inhibition

Smiles representation: Cc1nn(-c2ccccc2)c2c1c(=O)oc1ccccc12
Value observed: 48.1%

Smiles representation: Cc1nn(-c2ccccc2C(F)(F)F)c2c1c(=O)oc1ccccc12
Value observed: 34.6%

Smiles representation: COc1ccc2c(c1)oc(=O)c1c(C)nn(-c3ccc(Br)cc3)c12
Value observed: 27.3%

Smiles representation: Cc1nn(-c2ccc(F)cc2)c2c1c(=O)oc1ccccc12
Value observed: 28.3%

Smiles representation: Cc1ccc(C)c(-n2nc(C)c3c(=O)oc4ccc(Cl)cc4c32)c1
Value observed: 39.2%

Smiles representation: COc1ccc2c(c1)oc(=O)c1c(C)nn(-c3ccc(Cl)cc3)c12
Value observed: 34.8%

Smiles representation: COc1ccc2c(c1)oc(=O)c1c(C)nn(-c3ccc(C(F)(F)F)cc3)c12
Value observed: 33.2%

Smiles representation: Cc1nn(-c2ccc(C(F)(F)F)cc2)c2c1c(=O)oc1ccc(Cl)cc12
Value observed: 33.2%

Smiles representation: COc1ccc2c(c1)oc(=O)c1c(C)nn(-c3ccc(F)cc3)c12
Value observed: 34.8%

Smiles representation: COc1ccc2c(c1)oc(=O)c1c(C)nn(-c3ccccc3C(F)(F)F)c12
Value observed: 38.2%

Smiles representation: Cc1nn(-c2ccccc2)c2c1c(=O)oc1ccc(Cl)cc12
Value observed: 43.8%

Smiles representation: Cc1nn(-c2ccc(Cl)cc2Cl)c2c1c(=O)oc1ccccc12
Value observed: 30.5%

Smiles representation: Cc1ccc(C)c(-n2nc(C)c3c(=O)oc4ccccc4c32)c1
Value observed: 21.3%

====

The following compounds are listed with their measured inhibition in vivo at 150 µmol/kg values.
- System: Rattus norvegicus
- Test: Anti-inflammatory activity in Sprague-Dawley rat model of carrageenan-induced paw edema assessed as inhibition of paw edema volume at 150 umol/kg, po dosed 1 hr before carrageenan challenge and measured 5 hrs post carrageenan challenge
- Assay type: functional
Reported property: inhibition in vivo at 150 µmol/kg (%)

Smiles representation: COc1ccc2c(c1)oc(=O)c1c(C)nn(-c3ccc(C(F)(F)F)cc3)c12
Subject of test: Rattus norvegicus
Reported property: inhibition in vivo at 150 µmol/kg
Value observed: 43.7
--
Smiles representation: Cc1nn(-c2ccccc2)c2c1c(=O)oc1ccccc12
Subject of test: Rattus norvegicus
Reported property: inhibition in vivo at 150 µmol/kg
Value observed: 38.2
--
Smiles representation: Cc1nn(-c2ccc(C(F)(F)F)cc2)c2c1c(=O)oc1ccc(Cl)cc12
Subject of test: Rattus norvegicus
Reported property: inhibition in vivo at 150 µmol/kg
Value observed: 57.8
--
Smiles representation: Cc1ccc(-c2cc(C(F)(F)F)nn2-c2ccc(S(N)(=O)=O)cc2)cc1
Subject of test: Rattus norvegicus
Reported property: inhibition in vivo at 150 µmol/kg
Value observed: 51.4
--
Smiles representation: Cc1nn(-c2ccc(Br)cc2)c2c1c(=O)oc1ccccc12
Subject of test: Rattus norvegicus
Reported property: inhibition in vivo at 150 µmol/kg
Value observed: 37
--
Smiles representation: Cc1nn(-c2ccc(F)cc2)c2c1c(=O)oc1ccccc12
Subject of test: Rattus norvegicus
Reported property: inhibition in vivo at 150 µmol/kg
Value observed: 55.6
--
Smiles representation: Cc1nn(-c2ccc(Cl)cc2)c2c1c(=O)oc1ccccc12
Subject of test: Rattus norvegicus
Reported property: inhibition in vivo at 150 µmol/kg
Value observed: 49.4
--
Smiles representation: Cc1nn(-c2ccc(C(F)(F)F)cc2)c2c1c(=O)oc1ccccc12
Subject of test: Rattus norvegicus
Reported property: inhibition in vivo at 150 µmol/kg
Value observed: 59.9
